These data points were gathered from patent US10227331B2.

# system.tested: IMP-1 (Serratia marcescens)
# measurement.description: biochemical
# Assay type: biochemical
# details: CCF2-FA substrate, 2 hours at 25° C; read-out: IMP-1 IC50
recorded.endpoint: IC50 (nM)
Answer with a number only, understood to be in nM.

* Nc1nc2c(-c3ccc(S(=O)(=O)[C@@H]4CN[C@H](CO)C4)c(S(N)(=O)=O)c3-c3nn[nH]n3)cccc2s1 | 0.22
* CNc1nc2c(-c3ccc(S(=O)(=O)CCN)c(S(N)(=O)=O)c3-c3nn[nH]n3)cccc2s1 | 0.0995
* Nc1nc2cccc(-c3ccc([S+]([O-])C4CCNCC4)c(S(N)(=O)=O)c3-c3nn[nH]n3)c2[nH]1 (stereo not shown) | 23.9
* NCCS(=O)(=O)c1ccc(-c2cccc3sc(CN)nc23)c(-c2nn[nH]n2)c1S(N)(=O)=O | 0.562
* CCOC(=O)N1CC(S(=O)(=O)c2ccc(-c3cccc4[nH]c(N)nc34)c(-c3nn[nH]n3)c2S(N)(=O)=O)C1 | 1.98

*Q* Please list IC50 recorded for the compound NCCS(=O)(=O)c1ccc(-c2cccc(N3CCS(=O)(=O)CC3)c2)c(-c2nnn[nH]2)c1S(N)(=O)=O.O=C(O)C(F)(F)F [Example 158, 2,2,2-trifluoroacetate]
*A* 6.27

*Q* Identify IC50 associated with the compound Nc1nc2c(-c3ccc(S(=O)(=O)C4CNC4)c(S(N)(=O)=O)c3-c3nn[nH]n3)cccc2n1CCO
*A* 0.409

* * *

Listing of recorded pIC50 by entry.
# system.tested: VIM-1 (Pseudomonas aeruginosa (strain ATCC 15692 / DSM 22644 / CIP 104116 / JCM 14847 / LMG 12228 / 1C / PRS 101 / PAO1))
# measurement.description: biochemical
# details: CCF2-FA substrate, 2 hours at 25° C
API: returns pIC50 as number; meaning -log10 of concentration in mol/L.

The examples below pair each entry with its known result.
* Cn1cc(C(=O)C(F)(F)F)c2c(-c3ccc(S(=O)(=O)C4CNC4)c(S(N)(=O)=O)c3-c3nnn[nH]3)cccc21 | 9.32
* Nc1nc2ccc(-c3ccc(S(=O)(=O)C4CNC4)c(S(N)(=O)=O)c3-c3nn[nH]n3)cc2o1 | 9.48
* N#Cc1ccc(-c2ccc(S(=O)(=O)CCN)c(S(N)(=O)=O)c2-c2nnn[nH]2)cn1.O=C(O)C(F)(F)F [Example 144, 2,2,2-trifluoroacetate] | 8.52
* Nc1nc2cccc(-c3ccc(S(=O)(=O)[C@H]4CC[C@@H](N)CC4)c(S(N)(=O)=O)c3-c3nn[nH]n3)c2[nH]1 | 9.53
* NCCS(=O)(=O)c1ccc(-c2cnc3[nH]ccc3c2)c(-c2nnn[nH]2)c1S(N)(=O)=O.O=C(O)C(F)(F)F [Example 149, 2,2,2-trifluoroacetate] | 9.73

*Q* Give the reported value of pIC50 for this record: NCCS(=O)(=O)c1ccc(-c2cccc(N3CCCC3=O)n2)c(-c2nnn[nH]2)c1S(N)(=O)=O.O=C(O)C(F)(F)F [Example 147, 2,2,2-trifluoroacetate]
*A* 9.28

* * *

Measured pIC50 values are reported for all entries that follow.
# system.tested: UniProt:P52699
# measurement.description: biochemical
# Assay type: biochemical
# details: CCF2-FA substrate, 2 hours at 25° C; read-out: IMP-1 IC50
pIC50 is defined as minus the log10 of a concentration measured in mol/L.

Examples with their reported pIC50 follow.
- NCCS(=O)(=O)c1ccc(-c2ccc(-c3nn[nH]n3)cc2)c(-c2nnn[nH]2)c1S(N)(=O)=O.O=C(O)C(F)(F)F [Example 151, 2,2,2-trifluoroacetate]: 9.72
- NS(=O)(=O)c1c(SC2CNC2)ccc(-c2ccc(NS(=O)(=O)C3CC3)cc2)c1-c1nn[nH]n1: 7.95
- Nc1nc2c(-c3ccc(S(=O)(=O)C4CN(CCO)C4)c(S(N)(=O)=O)c3-c3nn[nH]n3)cccc2[nH]1: 8.21
- NS(=O)(=O)c1c(S(=O)(=O)C2CCNCC2)ccc([C@H]2CC[C@H](N)CC2)c1-c1nnn[nH]1: 7.61
- NC[C@@H](O)CS(=O)(=O)c1ccc(-c2cc(I)cc3[nH]c(N)nc23)c(-c2nn[nH]n2)c1S(N)(=O)=O: 9.77
- Nc1nc2cc(-c3ccc(S(=O)(=O)C4CNC4)c(S(N)(=O)=O)c3-c3nn[nH]n3)ccn2n1: 8.42

Field: next compound
*Q* Retrieve pIC50 measured for Cc1nc2c(-c3ccc(S(=O)(=O)CCN)c(S(N)(=O)=O)c3-c3nn[nH]n3)cccc2[nH]1 and print it.
*A* 9.52

* * *

# system.tested: VIM-1 (Pseudomonas aeruginosa (strain ATCC 15692 / DSM 22644 / CIP 104116 / JCM 14847 / LMG 12228 / 1C / PRS 101 / PAO1), UniProt A0A0F7KYQ8)
# measurement.description: biochemical
# details: CCF2-FA substrate, 2 hours at 25° C
Output 1.0 for records whose IC50 is lower than 10000 pM, 0.0 for records at or above 10000 pM.

Use these answered entries as a reference point.
- CCOC(=O)Nc1nc2c(-c3ccc(S(=O)(=O)CCN)c(S(N)(=O)=O)c3-c3nn[nH]n3)cccc2s1: 1.0
- NS(=O)(=O)c1c(S(=O)(=O)C2CNC2)ccc(-c2ccnc3[nH]nnc23)c1-c1nn[nH]n1: 0.0
- Nc1nc2c(-c3ccc(SC4CNC4)c(S(N)(=O)=O)c3-c3nn[nH]n3)cccc2[nH]1: 0.0
- C[C@@H](N)CS(=O)(=O)c1ccc(-c2cccc3[nH]c(C(=O)O)nc23)c(-c2nn[nH]n2)c1S(N)(=O)=O: 1.0
- Nc1nc2cccc(-c3ccc(S(=O)(=O)C4CNC4)c(S(N)(=O)=O)c3-c3nn[nH]n3)c2o1: 1.0

Now consider the entry below.
*Q* Hello, is IC50 of the following compound strictly smaller than 10000 pM? N[C@@H](CO)CS(=O)(=O)c1ccc(-c2cccc3[nH]cnc23)c(-c2nn[nH]n2)c1S(N)(=O)=O
*A* 1.0

* * *

# system.tested: IMP-1 (Serratia marcescens, UniProt P52699)
# Sequence (P52699 whole entry, looked up, species assumed): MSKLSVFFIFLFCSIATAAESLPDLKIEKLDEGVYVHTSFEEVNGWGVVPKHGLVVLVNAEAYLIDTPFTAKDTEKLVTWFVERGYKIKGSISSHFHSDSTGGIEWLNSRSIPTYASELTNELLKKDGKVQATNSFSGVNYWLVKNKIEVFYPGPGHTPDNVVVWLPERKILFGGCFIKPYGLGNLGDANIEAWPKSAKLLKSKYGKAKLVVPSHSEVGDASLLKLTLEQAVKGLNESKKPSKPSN
# measurement.description: biochemical
# Format: biochemical
# details: CCF2-FA substrate, 2 hours at 25° C; read-out: IMP-1 IC50
Returns: string. Value is label 1 if measured IC50 is below 1 nM, and label 0 if it is greater than or equal to it.

Before answering, review these 6 worked examples.
* NCCS(=O)(=O)c1ccc(-c2cccc3c2nc(N)n3CC(F)(F)F)c(-c2nn[nH]n2)c1S(N)(=O)=O | label 1
* NCCS(=O)(=O)c1ccc(-c2cnc(N)c(C(N)=O)c2)c(-c2nn[nH]n2)c1S(N)(=O)=O | label 0
* CS(=O)(=O)N1CCC(S(=O)(=O)c2ccc(-c3cccc4nc(N)[nH]c34)c(-c3nn[nH]n3)c2S(N)(=O)=O)CC1 | label 0
* NC1CCC(c2ccc(S(=O)(=O)CC3CNC3)c(S(N)(=O)=O)c2-c2nnn[nH]2)CC1 (centres unmarked) | label 0
* NCCS(=O)(=O)c1ccc(-c2ccccc2NC(=O)CN)c(-c2nn[nH]n2)c1S(N)(=O)=O | label 0
* Nc1cc(-c2cc(-c3ccc(S(=O)(=O)C4CNC4)c(S(N)(=O)=O)c3-c3nnn[nH]3)ccn2)ccn1 | label 0

*Q* Problem: For the molecule Nc1c(NCCO)cccc1-c1ccc(S(=O)(=O)C2CNC2)c(S(N)(=O)=O)c1-c1nn[nH]n1 , is IC50 under 1 nM?
*A* label 0

*Q* is_below(IC50, 1 nM) for NS(=O)(=O)c1c(S(=O)(=O)C2CNC2)ccc(-c2ccc(NS(=O)(=O)C3CC3)cc2)c1-c1nn[nH]n1 ?
*A* label 1

*Q* Lab log: compare recorded IC50 with 1 nM; is it strictly lower for NCCc1nc2c(-c3ccc(S(=O)(=O)CCN)c(S(N)(=O)=O)c3-c3nn[nH]n3)cccc2[nH]1 ?
*A* label 0

*Q* Just wondering, is IC50 of NCCS(=O)(=O)c1ccc(-c2ccc(N)nc2)c(-c2nn[nH]n2)c1S(N)(=O)=O below 1 nM?
*A* label 1

*Q* Dear colleague, could you confirm whether IC50 of NCCCS(=O)(=O)c1ccc(-c2cccc3sc(N)nc23)c(-c2nn[nH]n2)c1S(N)(=O)=O falls below 1 nM? Thanks.
*A* label 1

*Q* # check: IC50 < 1 nM for Nc1nc2c(-c3ccc(S(=O)(=O)[C@H]4C[C@H](N)C4)c(S(N)(=O)=O)c3-c3nn[nH]n3)cccc2s1
*A* label 1

*Q* Dear colleague, could you confirm whether IC50 of N#CC1(c2ccc(-c3ccc(S(=O)(=O)CCN)c(S(N)(=O)=O)c3-c3nnn[nH]3)cn2)CNC1.O=C(O)C(F)(F)F [Example 132, 2,2,2-trifluoroacetate] falls below 1 nM? Thanks.
*A* label 0
